Listed next: entries and their corresponding melting point.
State just the number; it will be interpreted in °C.

Example compounds with recorded melting point:
* Cc1ccc(NC(C)c2cc(C(=O)NCCN(C)C)cc3ncc(N4CCOCC4)nc23)cc1F (single isomer, unassigned) [Compound 407b] | 105
* CC(Nc1ccc(F)c(F)c1)c1cc(C(=O)NCCN(C)C)cc2ncc(N3CCOCC3)nc12 (single isomer, unassigned) [Compound 281a] | 102
* CC(Nc1cccc(C#N)c1)c1cc(C(=O)N2CCOCC2)cc2ncc(N3CCOCC3)nc12 (stereo not shown) | 80

Find the recorded melting point belonging to CC(Nc1ccc(F)c(F)c1)c1cc(C(=O)N2CCN3CCC[C@@H]3C2)cc2ncc(N3CCOCC3)nc12 (stereo partly shown) [Compound 347] and report it. 170

###

Listed next: entries and their corresponding melting point.
State just the number; it will be interpreted in °C.

Example molecules with recorded melting point:
- CC(Nc1ccc(F)c(F)c1)c1cc(C(=O)N2CC[C@@H](O)C2)cc2ncc(N3CCOCC3)nc12 (single isomer, unassigned) [Compound 300a]: 140
- CC(Nc1cccc(F)c1)c1cc(C(=O)NC[C@@H](C)O)cc2ncc(N3CCOCC3)nc12 (single isomer, unassigned) [Compound 338a]: 89.8
- CC(Nc1cc(F)cc(Cl)c1)c1cc(C(=O)N2CCOCC2)cc2ncc(N3CCOCC3)nc12 (stereo not drawn): 80
- CC(Nc1cc(F)cc(F)c1)c1cc(C(=O)N(C)CCO)cc2ncc(N3CCOCC3)nc12 (stereo not drawn): 80
- CC(Oc1cc(F)cc(F)c1)c1cc(C(=O)N(C)C)cc2ncc(C3=CCOCC3)nc12 (single isomer, unassigned) [Compound 403a]: 53

// moving on: another record for melting point
Find the recorded melting point belonging to CC(Nc1cc(F)cc(F)c1)c1cc(C(=O)O)cc2ncc(N3CCOCC3)nc12 (single isomer, unassigned) [Compound 83b] and report it. 180

###

Molecular target: PI3Kδ (Homo sapiens)
Sequence (O00329 1-1044): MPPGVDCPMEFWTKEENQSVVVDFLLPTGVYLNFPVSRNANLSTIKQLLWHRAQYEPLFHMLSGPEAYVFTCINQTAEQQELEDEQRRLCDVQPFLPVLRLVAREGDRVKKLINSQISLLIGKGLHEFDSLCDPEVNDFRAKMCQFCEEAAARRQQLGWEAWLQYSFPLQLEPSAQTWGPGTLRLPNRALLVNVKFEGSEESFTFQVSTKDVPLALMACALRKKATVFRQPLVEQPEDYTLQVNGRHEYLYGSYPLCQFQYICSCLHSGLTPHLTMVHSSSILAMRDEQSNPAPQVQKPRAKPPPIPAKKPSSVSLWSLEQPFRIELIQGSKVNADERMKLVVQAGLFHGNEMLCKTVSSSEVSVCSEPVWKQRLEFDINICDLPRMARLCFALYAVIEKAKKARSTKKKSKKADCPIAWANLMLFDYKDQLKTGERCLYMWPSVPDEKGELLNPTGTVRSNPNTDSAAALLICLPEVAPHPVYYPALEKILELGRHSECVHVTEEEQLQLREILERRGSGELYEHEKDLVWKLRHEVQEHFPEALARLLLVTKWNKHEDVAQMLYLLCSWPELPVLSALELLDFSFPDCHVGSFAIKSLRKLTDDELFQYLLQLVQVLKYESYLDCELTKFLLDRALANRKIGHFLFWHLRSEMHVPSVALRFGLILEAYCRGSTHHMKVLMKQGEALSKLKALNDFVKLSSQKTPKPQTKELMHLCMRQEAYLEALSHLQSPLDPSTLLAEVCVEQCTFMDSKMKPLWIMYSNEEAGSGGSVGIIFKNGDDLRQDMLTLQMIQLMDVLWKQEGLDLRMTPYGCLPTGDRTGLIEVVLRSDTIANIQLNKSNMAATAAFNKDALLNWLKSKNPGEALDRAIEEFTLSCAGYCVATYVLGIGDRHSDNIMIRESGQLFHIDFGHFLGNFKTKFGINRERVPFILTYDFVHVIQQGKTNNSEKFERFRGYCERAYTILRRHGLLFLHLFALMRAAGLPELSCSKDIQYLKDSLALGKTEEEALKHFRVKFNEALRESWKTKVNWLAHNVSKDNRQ
Listed next: entries and their corresponding log10(Kd).
Recall that a logarithmic scale is used here: each number is log10 of Kd in nM.

Example compounds with recorded log10(Kd):
• CC(Sc1ccccc1)c1cc(C(=O)N(C)C)cc2ncc(N3CCOCC3)nc12 (stereo not shown) = 3.58
• CC(C)NCCNC(=O)c1cc(C(C)Nc2cc(F)cc(F)c2)c2nc(N3CCOCC3)cnc2c1 (single isomer, unassigned) = 2.28
• CNCCNC(=O)c1cc(C(C)Oc2ccc(Cl)c(F)c2)c2nc(N3CCOCC3)cnc2c1 (stereo not shown) [Compound 380a] = 3.86
• CC(Oc1cc(F)cc(F)c1)c1cc(C(=O)N2CCC2)cc2ncc(N3CCO[C@H](CO)C3)nc12 (mixture of isomers) = 3.42
• CN[C@H]1CCN(C(=O)c2cc(C(C)Nc3ccc(F)c(F)c3)c3nc(N4CCOCC4)cnc3c2)C1 (single isomer, unassigned) [Compound 365b] = 3.62
• CC(Nc1cc(F)cc(F)c1)c1cc(C(=O)N2CCNC(C(F)(F)F)C2)cc2ncc(N3CCOCC3)nc12 (single isomer, unassigned) [Compound 237d] = 4.29
• CC(Oc1ccccc1)c1cc(C(=O)N(C)C)cc2ncc(N3CCOCC3)nc12 (stereo not shown) = 2.91
• [2H]C([2H])(O)C([2H])([2H])NC(=O)c1cc(C(C)Nc2cccc(F)c2)c2nc(N3CCOCC3)cnc2c1 (single isomer, unassigned) [Compound 408a] = 2.52
• CC(Nc1cc(F)cc(F)c1)c1cc(CNCC(F)F)cc2ncc(N3CCOCC3)nc12 (stereo not shown) = 3.04
• CC(Nc1cc(F)c(F)c(F)c1)c1cc(C(=O)N(C)C2CCNC2)cc2ncc(N3CCOCC3)nc12 (single isomer, unassigned) [Compound 296a] = 2.23

Find the recorded log10(Kd) belonging to CC(Nc1ccc(F)c(F)c1)c1cc(C(=O)NC[C@H]2CCCN2)cc2ncc(N3CCOCC3)nc12 (stereo partly shown) and report it. 2.47

Find the recorded log10(Kd) belonging to CC(Nc1cccc(F)c1)c1cc(C(=O)NCC(=O)O)cc2ncc(N3CCOCC3)nc12 (single isomer, unassigned) [Compound 393b] and report it. 4.41

Find the recorded log10(Kd) belonging to CC(Nc1cc(F)cc(F)c1)c1cc(CO)cc2ncc(N3CCOCC3)nc12 (single isomer, unassigned) [Compound 154a] and report it. 1.99

###

Target: PI3Kδ (Homo sapiens)
Sequence (O00329 1-1044): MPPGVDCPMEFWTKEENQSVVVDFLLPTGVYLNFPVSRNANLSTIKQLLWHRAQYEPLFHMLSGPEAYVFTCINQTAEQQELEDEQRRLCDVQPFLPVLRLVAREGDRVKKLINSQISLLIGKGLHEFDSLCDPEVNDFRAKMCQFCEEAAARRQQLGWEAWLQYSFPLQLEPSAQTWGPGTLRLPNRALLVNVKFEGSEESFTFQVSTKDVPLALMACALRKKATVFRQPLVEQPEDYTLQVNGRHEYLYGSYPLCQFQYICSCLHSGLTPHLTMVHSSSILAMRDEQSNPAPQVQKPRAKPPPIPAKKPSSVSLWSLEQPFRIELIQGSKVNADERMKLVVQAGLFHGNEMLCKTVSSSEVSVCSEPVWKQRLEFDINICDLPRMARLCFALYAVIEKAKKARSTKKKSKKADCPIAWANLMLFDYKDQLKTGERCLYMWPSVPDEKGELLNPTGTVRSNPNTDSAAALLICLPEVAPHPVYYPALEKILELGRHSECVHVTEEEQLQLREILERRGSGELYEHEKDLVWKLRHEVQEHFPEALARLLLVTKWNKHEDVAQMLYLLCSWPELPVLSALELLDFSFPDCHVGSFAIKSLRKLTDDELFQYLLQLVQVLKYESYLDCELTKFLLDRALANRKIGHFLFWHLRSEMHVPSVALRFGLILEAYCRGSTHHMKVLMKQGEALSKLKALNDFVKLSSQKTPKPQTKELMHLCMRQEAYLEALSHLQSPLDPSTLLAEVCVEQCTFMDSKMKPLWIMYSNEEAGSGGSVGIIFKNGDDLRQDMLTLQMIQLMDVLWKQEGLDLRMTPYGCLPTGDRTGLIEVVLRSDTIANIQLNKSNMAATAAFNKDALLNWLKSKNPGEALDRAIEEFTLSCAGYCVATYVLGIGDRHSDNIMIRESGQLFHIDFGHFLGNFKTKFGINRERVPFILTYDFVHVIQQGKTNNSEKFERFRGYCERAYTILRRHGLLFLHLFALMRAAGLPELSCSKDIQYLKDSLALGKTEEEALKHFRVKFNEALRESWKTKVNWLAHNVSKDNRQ
parameterMeasured: pKd
Keep in mind that pKd stands for -log10 of concentration in molar terms.

Find the recorded pKd belonging to Cc1c(F)cccc1CN(C)c1cc(C(=O)N2CCNC(C(F)(F)F)C2)cc2ncc(N3CCOCC3)nc12 (single isomer, unassigned) [Compound 367b] and report it. 6.37

Find the recorded pKd belonging to CC(Nc1cc(F)cc(F)c1)c1cc(CNCC(F)(F)F)cc2ncc(N3CCOCC3)nc12 (single isomer, unassigned) and report it. 4.79

Find the recorded pKd belonging to CC(Oc1cc(F)cc(F)c1)c1cc(-c2cnc[nH]2)cc2ncc(N3CCOCC3)nc12 (single isomer, unassigned) [Compound 21] and report it. 5.65

Find the recorded pKd belonging to CCN(c1cccc(F)c1)C(C)c1cc(C(=O)N2CCOCC2)cc2ncc(N3CCOCC3)nc12 (stereo not shown) and report it. 5.81

Find the recorded pKd belonging to CNCCOCCN(C)C(=O)c1cc(C(C)Nc2cc(F)cc(F)c2)c2nc(N3CCOCC3)cnc2c1 (single isomer, unassigned) [Compound 175] and report it. 6.95

The origin of these recorded values is patent US10526316B2.
